All figures here come from patent US20070066516A1.

- assay.system: SSTR5 (Homo sapiens, UniProt P35346)
- Sequence (P35346 whole entry): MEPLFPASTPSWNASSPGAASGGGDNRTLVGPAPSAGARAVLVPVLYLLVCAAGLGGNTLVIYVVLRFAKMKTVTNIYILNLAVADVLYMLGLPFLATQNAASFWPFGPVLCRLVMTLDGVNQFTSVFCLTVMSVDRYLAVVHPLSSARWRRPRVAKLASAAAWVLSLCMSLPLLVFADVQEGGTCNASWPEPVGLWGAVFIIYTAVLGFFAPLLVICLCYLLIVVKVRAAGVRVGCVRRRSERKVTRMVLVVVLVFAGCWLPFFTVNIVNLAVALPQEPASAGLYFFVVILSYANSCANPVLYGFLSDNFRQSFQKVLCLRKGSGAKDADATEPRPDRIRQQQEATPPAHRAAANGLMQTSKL
- test.name: Radioligand binding assay on membranes of CHO-K1 cells expressing SSTR5
- test.settings: ratio of IC50 SSTR2 / IC50 SSTR5 in %
Where a SMILES comes first, the peptide text is derived from it. [ ]: non-standard residue; d: D form. Tpi = O=C(O)[C@@H]1Cc2c([nH]c3ccccc23)CN1; 1Nal = N[C@@H](Cc1cccc2ccccc12)C(=O)O; 2Nal = N[C@@H](Cc1ccc2ccccc2c1)C(=O)O; Ala(cPr) = N[C@@H](CC1CC1)C(=O)O; NMeF = CN[C@@H](Cc1ccccc1)C(=O)O
measurement.type: Ratio 2/5 in % (%)

>>> test_result("CSCC[C@@H]1NC(=O)[C@H]([C@@H](C)O)NC(=O)[C@H](CCCCN)NC(=O)[C@@H](Cc2c[nH]c3ccccc23)NC(=O)[C@H](Cc2ccc3ccccc3c2)NC(=O)[C@H](Cc2ccccc2)N(C)C1=O [P2279, cyclo[2Nal-Dtrp-Lys-Thr-Met-(N-Me)Phe]] (cyclo([2Nal][dW]KTM[NMeF]))")
37.2
>>> test_result("CSCC[C@@H]1NC(=O)[C@H]([C@@H](C)O)NC(=O)[C@H](CCCCN)NC(=O)[C@@H](Cc2c[nH]c3ccccc23)NC(=O)[C@H](Cc2cccc3ccccc23)NC(=O)[C@H](Cc2ccccc2)N(C)C1=O [P2278, cyclo[(1)Nal-DTrp-Lys-Thr-Met-(NMe)Phe]] (cyclo([1Nal][dW]KTM[NMeF]))")
27.9
>>> test_result("CSCC[C@@H]1NC(=O)[C@H]([C@@H](C)O)NC(=O)[C@H](CCCCN)NC(=O)[C@@H](Cc2c[nH]c3ccccc23)NC(=O)[C@H](Cc2ccc(O)cc2)NC(=O)[C@H](Cc2ccccc2)N(C)C1=O [P2265, cyclo[Tyr-DTrp-Lys-Thr-Met-(NMe)Phe]] (cyclo(Y[dW]KTM[NMeF]))")
1.2
>>> test_result("CSCC[C@@H]1NC(=O)[C@H](CC2CC2)NC(=O)[C@H](CCCCN)NC(=O)[C@@H](Cc2c[nH]c3ccccc23)NC(=O)[C@H](Cc2ccc(O)cc2)NC(=O)[C@H](Cc2ccccc2)N(C)C1=O [P2300] (cyclo([Ala(cPr)]M[NMeF]Y[dW]K))")
0.96
>>> test_result("CSCC[C@@H]1NC(=O)[C@H]([C@@H](C)O)NC(=O)[C@H](CCCCN)NC(=O)[C@@H](Cc2c[nH]c3ccccc23)NC(=O)[C@H](Cc2ccc(O)cc2)NC(=O)[C@@H]2Cc3c([nH]c4ccccc34)CN2C1=O [P2274, cyclo[Tyr-DTrp-Lys-Thr-Met-Tpi]] (cyclo(Y[dW]KTM[Tpi]))")
6.1
